Measured values drawn from patent US20260209325A1 for this set.

Target: T1, murine pro-myostatin (mouse, UniProt O08689 25-376, biotinylated (in the SPR assay))
T1 construct: also called proGDF8 (mouse); mouse pro-myostatin
Assay: SPR Biacore 8K, biotin-antigen captured
Field: koff. Provide a value for each of the binders that follow.

Ask: Would you kindly share the measured koff for Ab105 (antibody, human IgG4 S228P, kappa, V domains shown) VH: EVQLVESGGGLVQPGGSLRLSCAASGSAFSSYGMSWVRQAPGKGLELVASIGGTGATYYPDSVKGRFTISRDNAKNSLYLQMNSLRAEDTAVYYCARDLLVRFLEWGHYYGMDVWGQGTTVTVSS VL: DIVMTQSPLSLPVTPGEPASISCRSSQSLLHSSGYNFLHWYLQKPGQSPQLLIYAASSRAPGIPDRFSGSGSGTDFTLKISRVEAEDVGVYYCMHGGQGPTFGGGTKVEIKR ?
Reply: 0.000276 s⁻¹

Ask: Also need Ab107 (antibody, human IgG4 S228P, kappa, V domains shown) VH: EVQLVESGGGLVQPGGSLRLSCAASGSAFSSYGMSWVRQAPGKGLELVASINSNGGSTYYPDSVKGRFTISRDNAKNSLYLQMNSLRAEDTAVYYCARDQLVRFLEWSHYYGMDVWGQGTTVTVSS VL: DIVMTQSPLSLPVTPGEPASISCRSSQSLLHSSGHNFLHWYLQKPGQSPQLLIYAGSNRPSGVPDRFSGSGSGTDFTLKISRVEAEDVGVYYCAHATQLPHTFGGGTKVEIKR , thanks.
Reply: 0.000455 s⁻¹

Ask: Ab133 (antibody, human IgG4 S228P, kappa, V domains shown, human IgG4 in the EM experiment; also called Ab133 Human IgG4) VH: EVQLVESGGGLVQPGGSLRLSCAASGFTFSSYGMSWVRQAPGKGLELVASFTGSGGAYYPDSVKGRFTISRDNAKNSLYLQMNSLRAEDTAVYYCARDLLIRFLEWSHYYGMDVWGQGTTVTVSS VL: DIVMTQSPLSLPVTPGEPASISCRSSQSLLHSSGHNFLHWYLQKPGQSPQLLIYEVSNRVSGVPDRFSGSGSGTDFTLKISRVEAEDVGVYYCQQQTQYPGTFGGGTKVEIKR , same question.
Reply: 0.000162 s⁻¹
